Reference for the values: ChEMBL document CHEMBL5518244

- assay_text: AUClast in C57BL/6J mouse at 10 mg/kg, po measured upto 24 hrs by LC-MS/MS analysis
- Assay type: ADME, organism-based
- test_parameters: in vivo
measurement_label: AUC(0-t) at 24 h (ng·h/mL)
Number in ng·h/mL, nothing else.

Challenge: Given the entry COc1cc(Nc2nccc(N3CCCn4nc(C#C[C@@](C)(O)c5nccs5)cc43)n2)cc(OC)c1 , report its measured AUC(0-t) at 24 h.
Response given: 2520

###

- system_tested: Mitogen-activated protein kinase kinase kinase 14 (Homo sapiens, UniProt Q99558)
- Sequence (Q99558 whole entry): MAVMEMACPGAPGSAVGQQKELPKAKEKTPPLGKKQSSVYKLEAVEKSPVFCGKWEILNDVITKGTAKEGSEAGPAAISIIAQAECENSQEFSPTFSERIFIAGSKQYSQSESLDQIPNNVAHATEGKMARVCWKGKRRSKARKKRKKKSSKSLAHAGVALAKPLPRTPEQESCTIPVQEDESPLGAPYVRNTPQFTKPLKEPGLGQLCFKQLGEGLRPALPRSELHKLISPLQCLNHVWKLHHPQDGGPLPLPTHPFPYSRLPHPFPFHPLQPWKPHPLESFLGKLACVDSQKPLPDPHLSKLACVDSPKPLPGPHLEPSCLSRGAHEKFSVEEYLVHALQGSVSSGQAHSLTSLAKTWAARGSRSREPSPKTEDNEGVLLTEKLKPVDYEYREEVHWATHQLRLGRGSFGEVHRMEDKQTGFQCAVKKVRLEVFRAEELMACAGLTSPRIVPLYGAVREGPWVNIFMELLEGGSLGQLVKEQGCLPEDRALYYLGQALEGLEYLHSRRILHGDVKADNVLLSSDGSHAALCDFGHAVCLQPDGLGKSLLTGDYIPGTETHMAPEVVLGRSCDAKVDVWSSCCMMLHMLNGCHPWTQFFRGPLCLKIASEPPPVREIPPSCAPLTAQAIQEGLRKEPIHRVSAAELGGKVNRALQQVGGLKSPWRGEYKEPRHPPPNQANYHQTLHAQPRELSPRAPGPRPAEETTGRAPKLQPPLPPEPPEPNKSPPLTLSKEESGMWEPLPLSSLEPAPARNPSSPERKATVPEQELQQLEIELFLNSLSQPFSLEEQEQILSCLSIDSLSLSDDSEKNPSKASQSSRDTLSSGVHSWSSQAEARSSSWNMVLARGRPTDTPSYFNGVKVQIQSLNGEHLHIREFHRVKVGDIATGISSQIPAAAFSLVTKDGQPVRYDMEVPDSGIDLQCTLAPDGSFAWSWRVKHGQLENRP
- assay_text: Inhibition of NIK (unknown origin) incubated 30 to 60 mins by ADP-Glo Kinase
pIC50: −log10 of the molar value.
Answer -1 if pIC50 is under 8, and 1 if it is 8 or more.

Would you please look over these solved cases?
{"columns": ["molecule", "assigned_class"],
 "data": [
  ["COCCNc1nccc(N2CCCn3nc(C#CC(C)(O)c4nccs4)cc32)n1 (stereo not drawn)", -1],
  ["C(#Cc1cc2n(n1)CCCN2c1ccnc(Nc2ccc3c(c2)OCO3)n1)c1ccccn1", -1],
  ["COc1cccnc1Nc1nccc(N2CCCn3nc(C#CC(C)(O)c4nccs4)cc32)n1 (stereo not drawn)", -1]
]}

Challenge: // inclusive: pIC50 at least 8? input: CC(O)(C#Cc1cc2n(n1)CCCN2c1ccnc(NC23CC(C2)C3)n1)c1nccs1 (stereo not drawn)
Response given: 1

Challenge: // inclusive: pIC50 at least 8? input: COc1cc(Nc2nccc(N3CCCn4nc(C#C[C@](C)(O)c5nccs5)cc43)n2)cc(OC)c1
Response given: -1

Challenge: // inclusive: pIC50 at least 8? input: CC(O)(C#Cc1cc2n(n1)CCCN2c1ccnc(Nc2ccccc2)n1)c1nccs1 (stereo not drawn)
Response given: 1

Challenge: // inclusive: pIC50 at least 8? input: COc1cc(Nc2nccc(N3CCCn4nc(C#C[C@@](C)(O)c5nccs5)cc43)n2)cc(OC)c1
Response given: 1

Challenge: // inclusive: pIC50 at least 8? input: CC(O)(C#Cc1cc2n(n1)CCCN2c1ccnc(Nc2cccc(C#N)c2)n1)c1nccs1 (stereo not drawn)
Response given: 1
